Data origin, for the record: ChEMBL document CHEMBL4513216

- METHOD: Toxicity liver stage against HepG2, at 10uM
- Type: cell-based
- Parameters: test concentration 10 uM, cell line HepG2-A16-CD81EGFP
- CONDITION INFO: human, HepG2-A16-CD81EGFP cells; read-out: INHIBITION
QUANTITY NAME: cytotoxicity at 10 µM (%)
Numbers only, in %.

Recorded results for 8 molecules are shown here.
>>> measured_result("Cc1ccc2c(n1)N(Cc1cccnc1)CCN(C(=O)C1CC1)C2")
-61.7
>>> measured_result("Cc1cc(C(C)(O)CNC(=O)CCn2ccnc2C(C)C)c(C)o1 (stereo unspecified)")
4.27
>>> measured_result("O=C(CCc1cc(F)ccc1F)NS(=O)(=O)c1ccc2c(c1)OCCO2")
-18.8
>>> measured_result("CCCc1nnc(NC2CCN(C3CCCC3)CC2)o1")
-2.66
>>> measured_result("COc1ccc(Cl)cc1CC(=O)NS(=O)(=O)c1ccc(C(N)=O)cc1")
-2.64
>>> measured_result("COCC1CC2(CCN(C(=O)c3oc4ccccc4c3C)CC2)CO1 (stereo unspecified)")
-141
>>> measured_result("O=C(Cn1ccc(-c2ccccc2)n1)N1CCN(C(=O)C2CC2)CC1")
-6.58
>>> measured_result("O=C(c1ccncc1)N1CCCC1c1nc(O)cc(-c2ccccn2)n1 (stereo unspecified)")
-9.08

Required: cytotoxicity at 10 µM, one value per molecule below.
1. Cc1nc(COC[C@]23COC[C@H]2CN(Cc2ccoc2)C3)cs1
2. CC(C)c1nccn1C(C)C(=O)N1CCN(c2ccccc2Cl)CC1 (stereo unspecified)
3. CC(=O)NCCC1CCCCN1S(=O)(=O)c1cccc(Cl)c1 (stereo unspecified)

[out]
1. -19.2
2. 3.54
3. -125
